- Read-out: CD38, CD38 (gene 952)
- method: BSK_SAg_CD38: BioMAP Diversity Plus: SAg Assay for CD38 Biomarker Activity (AID 2283087)
- condition.context: primary human HUVEC with PBMC; actives raise or lower the signal
The source made the active and inactive calls. How the source made its calls: active means hit-call score of the fitted dose curve at least 0.9, where 1 is the maximum; inactive means score below 0.9.
Allowed answers: Y (active), N (inactive)

These solved cases illustrate the format of a correct answer.
>>> group_label("COc1nc(C)nc(NC(=O)NS(=O)(=O)c2ccccc2Cl)n1")
"N"
>>> group_label("CC1COC(Cn2cncn2)(c2ccc(Oc3ccc(Cl)cc3)cc2Cl)O1 (stereo unspecified)")
"Y"
>>> group_label("Cc1cc(Cl)ccc1OCC(=O)O")
"N"
>>> group_label("C#CCOS(=O)OC1CCCCC1Oc1ccc(C(C)(C)C)cc1 (stereo unspecified)")
"Y"
>>> group_label("N#Cc1nn(-c2c(Cl)cc(C(F)(F)F)cc2Cl)c(N)c1S(=O)C(F)(F)F (stereo unspecified)")
"Y"

Read the next record carefully.
Query block: So what was the verdict on Cc1ccc(-c2c(Cl)nc(C#N)n2S(=O)(=O)N(C)C)cc1 in this test?
Result block: Y

* * *

- subject.of.test: Estrogen receptor beta (Homo sapiens) (UniProt Q92731)
- Sequence (Q92731 whole entry, looked up): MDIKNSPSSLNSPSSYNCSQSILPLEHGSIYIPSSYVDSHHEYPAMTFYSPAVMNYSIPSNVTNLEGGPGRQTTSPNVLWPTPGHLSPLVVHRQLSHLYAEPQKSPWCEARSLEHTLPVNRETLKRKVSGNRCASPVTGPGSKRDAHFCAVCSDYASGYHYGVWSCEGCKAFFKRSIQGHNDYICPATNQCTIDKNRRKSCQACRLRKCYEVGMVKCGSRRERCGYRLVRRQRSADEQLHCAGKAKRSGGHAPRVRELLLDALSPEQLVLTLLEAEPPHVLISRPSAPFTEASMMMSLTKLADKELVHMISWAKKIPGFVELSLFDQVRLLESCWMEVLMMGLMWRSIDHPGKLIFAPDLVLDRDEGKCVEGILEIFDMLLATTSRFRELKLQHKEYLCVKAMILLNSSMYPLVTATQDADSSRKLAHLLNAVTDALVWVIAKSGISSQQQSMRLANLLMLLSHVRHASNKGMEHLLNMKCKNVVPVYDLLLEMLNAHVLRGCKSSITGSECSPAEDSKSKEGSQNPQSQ
- method: ATG_hERb_XSP2: Attagene TRANS-FACTORIAL Multi-Species (XSP2) HepG2 Assay for human Estrogen Receptor (ERb) (AID 2283813);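 further: actives raise reporter mRNA above DMSO so AC50 reflects agonist induction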
Results filed as inconclusive are left out. Active and inactive are the calls of the source. How the source made its calls: active means hit-call score of the fitted dose curve at least 0.9, where 1 is the maximum; inconclusive means response in the unintended direction; inactive means score below 0.9.
Returns: one label drawn from active, inactive

These solved cases illustrate the format of a correct answer.
>>> group_label("CCCN(CCC)c1c([N+](=O)[O-])cc(S(N)(=O)=O)cc1[N+](=O)[O-]")
"inactive"
>>> group_label("COP(=S)(OC)Oc1nc(Cl)c(Cl)cc1Cl")
"inactive"
>>> group_label("CCCCNC(=O)OCC#CI")
"inactive"
>>> group_label("COc1ccc(C(c2ccc(OC)cc2)C(Cl)(Cl)Cl)cc1")
"inactive"
>>> group_label("CC(C)Oc1cc(-n2nc(C(C)(C)C)oc2=O)c(Cl)cc1Cl")
"active"
>>> group_label("CC(C)(C)c1ccc(CSc2cnn(C(C)(C)C)c(=O)c2Cl)cc1")
"inactive"

Now for another entry.
Query block: For C=CC1(C)OC(=O)N(c2cc(Cl)cc(Cl)c2)C1=O (configuration not stated) , which call appears in the assay record?
Result block: inactive

* * *

- Read-out: Pro-epidermal growth factor (Homo sapiens)
- method: LTEA_HepaRG_EGF: Life Technologies and Expression Analysis (LTEA) Assay for Epidermal growth factor (EGF) using HepaRG (AID 2283489)
- condition.context: mRNA level, 48 h; actives raise or lower the signal
The source made the active and inactive calls. The calls were made as follows: active = hit-call score of the fitted dose curve at least 0.9, where 1 is the maximum; inactive = score below 0.9.
Classes to choose from: active, inactive

Query block: # fetch the recorded call for CC1COC(Cn2cncn2)(c2ccc(Oc3ccc(Cl)cc3)cc2Cl)O1 (stereo unspecified) here
Result block: inactive

Query block: Could you kindly confirm the outcome this assay logged for CCc1nn(C)c(C(=O)NCc2ccc(C(C)(C)C)cc2)c1Cl ?
Result block: active

Query block: Lab log entry: CCCCNC(=O)OCC#CI — outcome as called in the assay?
Result block: inactive

Query block: Hi team, can someone confirm the assay call for CNC(=O)ON=CC(C)(C)SC ?
Result block: inactive

Query block: Hello, I am checking results. What call was entered for COC(=O)c1ccccc1C(=O)OC ?
Result block: inactive

Query block: Field: outcome | Entry: C=CC1(C)OC(=O)N(c2cc(Cl)cc(Cl)c2)C1=O (stereo unspecified)
Result block: inactive
